Target: Bek (Homo sapiens, UniProt P21802)
Sequence (P21802 431-767 limits assumed): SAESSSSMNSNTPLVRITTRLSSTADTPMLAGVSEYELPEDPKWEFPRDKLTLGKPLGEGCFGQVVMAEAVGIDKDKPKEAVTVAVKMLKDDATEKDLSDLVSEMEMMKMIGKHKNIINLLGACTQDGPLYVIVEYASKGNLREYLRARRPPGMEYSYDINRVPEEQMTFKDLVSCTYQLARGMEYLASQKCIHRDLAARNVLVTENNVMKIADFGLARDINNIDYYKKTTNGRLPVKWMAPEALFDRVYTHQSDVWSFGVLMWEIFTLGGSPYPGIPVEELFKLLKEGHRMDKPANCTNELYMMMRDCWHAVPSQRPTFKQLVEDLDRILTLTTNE
Experiment: Inhibitory activity against Bek-autophosphorylation using ELISA method in OCUM-2MD3 cells
Format: cell-based
Details: 1 hr with compound, read-out: IC50 (concentration necessary for inhibiting 50% of Bek-phosphorylation)
property-label: IC50 (nM)

Consider the following illustrative entries.
COc1cc2c(Oc3ccc(NC(=O)NCCC(C)(C)C)cc3)ccnc2cc1OCCCCl [Compound 151]: 221
COc1cc2nccc(Oc3ccc(Nc4ccc(OCc5ccccc5)cc4)cc3)c2cc1OC [Compound 7]: 1800
COc1cc2c(Oc3ccc(NC(=O)NCCC(C)(C)C)c(F)c3)ccnc2cc1OCCNCCO [Compound 329]: 20.8
COc1ccc(Nc2ccc(Oc3ccnc4cc(OC)c(OC)cc34)cc2)cc1 [Compound 1]: 3930
COc1cc2c(Oc3ccc(Nc4ccc(C(C)(C)C)cc4)cc3)ccnc2cc1OCCCN(C)C [Compound 46]: 230

A: COc1cc2c(Oc3ccc(Nc4ccc(C(C)(C)C)cc4)cc3)ccnc2cc1OCCCN1CCC(CCO)CC1 [Compound 218]
B: COc1cc2c(Oc3ccc(Nc4ccc(C(C)(C)C)cc4)cc3)ccnc2cc1OCCN(CCO)CCO [Compound 48]
## Input Endpoint returns the identifier whose IC50 is numerically larger, either A or B . // output: label of the selected item
## Output A

Origin of values: patent US7495104B2
